Answer each item with its documented Ki.
- ASSAYED TARGET: L-type calcium channel (Rattus norvegicus, UniProt P22002)
- Construct: membrane fragments of rat cardiac muscle; from tissue; host or cells: rat cardiac muscle membranes
- Sequence (P22002 whole entry, other chains not shown, the tested form may be a part): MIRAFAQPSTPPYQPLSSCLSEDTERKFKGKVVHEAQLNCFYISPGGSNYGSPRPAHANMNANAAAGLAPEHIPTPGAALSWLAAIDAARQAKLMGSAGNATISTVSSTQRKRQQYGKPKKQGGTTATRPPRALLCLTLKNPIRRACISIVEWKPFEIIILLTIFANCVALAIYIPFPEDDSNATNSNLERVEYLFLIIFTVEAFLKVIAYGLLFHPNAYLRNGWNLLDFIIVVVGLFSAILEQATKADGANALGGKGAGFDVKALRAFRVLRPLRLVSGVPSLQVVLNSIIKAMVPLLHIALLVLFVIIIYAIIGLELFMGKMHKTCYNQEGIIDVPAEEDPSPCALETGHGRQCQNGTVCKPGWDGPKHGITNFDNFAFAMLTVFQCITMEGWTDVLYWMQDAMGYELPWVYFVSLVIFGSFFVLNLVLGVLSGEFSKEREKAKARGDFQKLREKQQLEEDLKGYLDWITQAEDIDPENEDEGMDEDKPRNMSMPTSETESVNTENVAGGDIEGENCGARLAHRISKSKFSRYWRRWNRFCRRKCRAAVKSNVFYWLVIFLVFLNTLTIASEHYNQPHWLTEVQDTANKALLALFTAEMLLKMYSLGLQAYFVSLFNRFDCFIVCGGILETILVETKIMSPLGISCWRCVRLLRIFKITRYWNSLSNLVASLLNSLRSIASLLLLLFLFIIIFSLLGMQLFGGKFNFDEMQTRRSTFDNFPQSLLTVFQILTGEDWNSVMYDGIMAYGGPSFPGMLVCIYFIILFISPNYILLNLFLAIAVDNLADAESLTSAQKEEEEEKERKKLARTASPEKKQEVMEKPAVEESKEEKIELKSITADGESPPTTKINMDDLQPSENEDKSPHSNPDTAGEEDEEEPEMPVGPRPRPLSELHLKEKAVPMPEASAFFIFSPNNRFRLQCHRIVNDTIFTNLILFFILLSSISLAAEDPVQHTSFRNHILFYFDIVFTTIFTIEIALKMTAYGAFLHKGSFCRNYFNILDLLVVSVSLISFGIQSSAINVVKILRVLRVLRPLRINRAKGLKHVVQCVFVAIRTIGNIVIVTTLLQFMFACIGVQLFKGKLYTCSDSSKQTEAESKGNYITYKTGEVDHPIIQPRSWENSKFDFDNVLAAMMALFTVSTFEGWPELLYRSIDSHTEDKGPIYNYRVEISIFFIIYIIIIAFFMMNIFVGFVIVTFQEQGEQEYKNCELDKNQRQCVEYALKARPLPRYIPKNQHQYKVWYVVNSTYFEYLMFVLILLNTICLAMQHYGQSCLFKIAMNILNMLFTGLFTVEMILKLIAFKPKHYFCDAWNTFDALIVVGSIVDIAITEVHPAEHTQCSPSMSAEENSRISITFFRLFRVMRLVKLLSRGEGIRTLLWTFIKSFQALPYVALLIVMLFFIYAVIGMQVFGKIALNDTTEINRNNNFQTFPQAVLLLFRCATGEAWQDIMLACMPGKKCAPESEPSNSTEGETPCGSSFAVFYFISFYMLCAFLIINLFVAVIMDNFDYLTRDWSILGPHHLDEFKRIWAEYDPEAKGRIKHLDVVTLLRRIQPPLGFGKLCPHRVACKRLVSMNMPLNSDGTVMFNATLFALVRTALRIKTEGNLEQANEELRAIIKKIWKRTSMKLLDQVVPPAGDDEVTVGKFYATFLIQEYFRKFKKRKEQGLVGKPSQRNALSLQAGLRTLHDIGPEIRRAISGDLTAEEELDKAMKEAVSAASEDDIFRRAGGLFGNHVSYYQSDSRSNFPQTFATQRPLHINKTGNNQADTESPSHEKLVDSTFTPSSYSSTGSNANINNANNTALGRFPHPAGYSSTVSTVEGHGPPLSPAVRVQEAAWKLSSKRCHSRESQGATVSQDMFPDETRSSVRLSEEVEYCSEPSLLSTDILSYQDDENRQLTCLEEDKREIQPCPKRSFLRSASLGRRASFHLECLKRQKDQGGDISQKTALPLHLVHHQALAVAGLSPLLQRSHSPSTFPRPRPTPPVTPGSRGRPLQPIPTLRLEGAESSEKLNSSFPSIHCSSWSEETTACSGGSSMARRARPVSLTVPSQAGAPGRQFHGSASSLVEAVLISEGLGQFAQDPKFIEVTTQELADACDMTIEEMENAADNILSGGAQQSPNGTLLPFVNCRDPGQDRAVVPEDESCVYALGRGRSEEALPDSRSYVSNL
- Sequence (P54290 25-944 partner limits assumed, other chains not shown): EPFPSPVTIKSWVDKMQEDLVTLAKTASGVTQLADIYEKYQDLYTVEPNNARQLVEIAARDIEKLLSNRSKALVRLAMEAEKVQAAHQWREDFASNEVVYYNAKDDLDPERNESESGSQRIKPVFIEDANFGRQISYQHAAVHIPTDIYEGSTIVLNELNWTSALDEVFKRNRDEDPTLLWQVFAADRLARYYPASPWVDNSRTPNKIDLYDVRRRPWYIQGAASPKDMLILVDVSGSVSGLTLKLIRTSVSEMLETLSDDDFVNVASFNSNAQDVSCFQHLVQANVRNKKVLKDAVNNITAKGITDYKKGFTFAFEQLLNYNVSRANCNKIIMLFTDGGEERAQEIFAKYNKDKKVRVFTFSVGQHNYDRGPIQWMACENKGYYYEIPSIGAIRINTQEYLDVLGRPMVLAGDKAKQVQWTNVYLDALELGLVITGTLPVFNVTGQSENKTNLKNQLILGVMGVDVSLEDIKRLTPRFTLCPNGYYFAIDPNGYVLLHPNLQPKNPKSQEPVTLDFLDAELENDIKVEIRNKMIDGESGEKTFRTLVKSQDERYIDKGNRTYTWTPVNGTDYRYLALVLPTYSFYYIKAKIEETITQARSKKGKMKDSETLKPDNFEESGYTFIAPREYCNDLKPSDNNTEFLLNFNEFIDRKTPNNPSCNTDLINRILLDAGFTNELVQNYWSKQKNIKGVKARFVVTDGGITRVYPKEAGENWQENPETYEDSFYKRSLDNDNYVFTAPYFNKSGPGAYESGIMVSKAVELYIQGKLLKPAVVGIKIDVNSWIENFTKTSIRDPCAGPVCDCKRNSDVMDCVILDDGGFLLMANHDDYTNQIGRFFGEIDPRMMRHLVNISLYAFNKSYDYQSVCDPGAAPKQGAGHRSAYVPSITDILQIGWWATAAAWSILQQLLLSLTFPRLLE
- Sequence (P54290 945-1091 partner limits assumed, other chains not shown): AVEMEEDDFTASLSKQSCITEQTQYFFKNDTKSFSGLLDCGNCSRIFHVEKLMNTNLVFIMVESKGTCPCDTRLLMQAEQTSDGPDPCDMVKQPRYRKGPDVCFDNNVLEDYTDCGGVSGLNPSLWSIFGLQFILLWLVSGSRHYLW
- PROTOCOL SUMMARY: Competition binding of [3H]nitrendipine to membrane fragments of rat cardiac muscle
- CONDITION PARAMETERS: PKi Ca
I'd appreciate it if you included the unit after the number.

Please fill in: Ki reported for CC1=C(C(N)=O)C(c2ccc([N+](=O)[O-])cc2)C(C(=O)NCCCN2CCC(c3ccccc3)(c3ccccc3)CC2)=C(COCCN)N1 (stereo not drawn) = 8.13 µM

Please fill in: Ki reported for COC(=O)C1(c2ccccc2)CCN(CCCNC(=O)C2=C(CCCCN)NC(C)=C(C(N)=O)C2c2ccc([N+](=O)[O-])cc2)CC1 (stereo not drawn) = 93.3 µM

Please fill in: Ki reported for CCOC(=O)C1(c2ccccc2)CCN(CCCNC(=O)C2=C(COCCN)NC(CC)=C(C(=O)OC)C2c2ccc([N+](=O)[O-])cc2)CC1 (stereo not drawn) = 6.31 µM

Please fill in: Ki reported for COC(=O)C1=C(C)NC(C)=C(C(=O)NCCCN2CCC(c3ccccc3)(c3ccccc3)CC2)C1c1cccc([N+](=O)[O-])c1 (stereo not drawn) = 0.0309 µM

Please fill in: Ki reported for CCNC(=O)C1=C(CC)NC(CC)=C(C(=O)NCCCN2CCC(C(=O)OCC)(c3ccccc3)CC2)C1c1ccc([N+](=O)[O-])cc1 (stereo not drawn) = 355 µM

Please fill in: Ki reported for CCNC(=O)C1=C(CC)NC(COCCN)=C(C(=O)NCCCN2CCC(C(=O)OC)(c3ccccc3)CC2)C1c1ccc([N+](=O)[O-])cc1 (stereo not drawn) = 0.257 µM

====

Answer each item with its documented pKi.
- ASSAYED TARGET: L-type calcium channel (Rattus norvegicus, UniProt P22002)
- Construct: membrane fragments of rat cardiac muscle; from tissue; host or cells: rat cardiac muscle membranes
- PROTOCOL SUMMARY: Competition binding of [3H]nitrendipine to membrane fragments of rat cardiac muscle
- CONDITION PARAMETERS: pKi Ca
Structures can show the parent of a compound that is named as a salt.
# log scale: pKi equals minus log10 of the concentration in mol/L

Please fill in: pKi reported for COC(=O)C1=C(C)NC(C)=C(C(=O)NCCN2CCC(c3ccccc3)(c3ccccc3)CC2)C1c1ccc([N+](=O)[O-])cc1 (stereo not shown) [Example 52, hydrochloride hemihydrate] = 5.29

Please fill in: pKi reported for CCC1=C(C(=O)NCCCN2CCC(c3ccccc3)(c3ccccc3)CC2)C(c2ccc([N+](=O)[O-])cc2)C(C(=O)OC)=C(C)N1 (stereo not shown) = 6.12

Please fill in: pKi reported for COC(=O)C1=C(C)NC(C)=C(C(=O)NCCCN2CCC(c3ccccc3)(c3ccccc3)CC2)C1c1ccc(Cl)c([N+](=O)[O-])c1 (stereo not shown) = 6.09

Please fill in: pKi reported for COC(=O)C1=C(C)NC(C)=C(C(=O)NCCCN2CCC(c3ccccc3)(c3ccccc3)CC2)C1c1ccc(C(F)(F)F)cc1 (stereo not shown) = 5.18

Please fill in: pKi reported for COC(=O)C1=C(C)NC(C)=C(C(=O)NCCCN2CCC(c3ccccc3)(c3ccccc3)CC2)C1c1ccc(Cl)cc1 (stereo not shown) = 5.12

Please fill in: pKi reported for COC(=O)C1=C(C)NC(C)=C(C(=O)NCCCN2CCC(c3ccccc3)(c3ccccc3)CC2)C1c1ccc(Cl)c(Cl)c1 (stereo not shown) = 5.71

Please fill in: pKi reported for COC(=O)C1=C(C)NC(c2ccccc2)=C(C(=O)NCCCN2CCC(c3ccccc3)(c3ccccc3)CC2)C1c1ccc([N+](=O)[O-])cc1 (stereo not shown) [Example 78, hydrochloride hydrate] = 5.50

Please fill in: pKi reported for COC(=O)C1=C(C)NC(C)=C(C(=O)NCCCN2CCC(c3ccccc3)(c3ccccc3)CC2)C1c1ccc(OC)cc1 (stereo not shown) = 6.00

Please fill in: pKi reported for COC(=O)C1=C(C)NC(C)=C(C(=O)NCCCN2CCC(c3ccccc3)(c3ccccc3)CC2)C1c1ccc2ccccc2c1 (stereo not shown) = 6.43

Please fill in: pKi reported for CNC(=O)C1=C(C)NC(C)=C(C(=O)NCCCN2CCC(c3ccccc3)(c3ccccc3)CC2)C1c1ccc([N+](=O)[O-])cc1 (racemic) [(±)-119] = 5.13

Please fill in: pKi reported for CCOC(=O)C1=C(CC(=O)NCCCN2CCC(c3ccccc3)(c3ccccc3)CC2)NC(C)=C(C(=O)OC)C1c1ccc([N+](=O)[O-])cc1 (stereo not shown) [Example 89, fumarate salt] = 6.09

Please fill in: pKi reported for COC(=O)C1=C(C)NC(C)=C(C(=O)NCCCN2CCC(c3ccccc3)(c3ccccc3)CC2)C1c1ccc(OC)c(OC)c1 (stereo not shown) = 7.06

Please fill in: pKi reported for CNC(=O)C1=C(C)NC(C)=C(C(=O)NCCCN2CCC(c3ccccc3)(c3ccccc3)CC2)C1c1ccc([N+](=O)[O-])cc1 (stereo not shown) [Example 38] = 5.15

Please fill in: pKi reported for COC(=O)C1=C(C)NC(C)=C(C(=O)NCCCN2CCC(c3ccccc3)(c3ccccc3)CC2)C1c1ccncc1 (stereo not shown) = 5.34

Please fill in: pKi reported for COC(=O)C1=C(C)NC(C)=C(C(=O)NCCCN2CCC(c3ccccc3)(c3ccccc3)CC2)C1c1ccc(I)cc1 (stereo not shown) = 5.05

Please fill in: pKi reported for COC(=O)C1=C(C)NC(C)=C(C(=O)NCCCN2CCC(c3ccccc3)(c3ccccc3)CC2)C1c1ccc2c(c1)OCO2 (stereo not shown) = 5.64

Please fill in: pKi reported for COC(=O)C1=C(C)NC(C)=C(C(=O)NCCCN2CCC(c3ccccc3)(c3ccccc3)CC2)C1c1ccc(C(C)C)cc1 (stereo not shown) = 6.79

Please fill in: pKi reported for COC(=O)C1=C(C)NC(C)=C(C(=O)NCCCN2CCC(c3ccccc3)(c3ccccc3)CC2)C1c1ccc(C#N)cc1 (stereo not shown) = 5.42

Please fill in: pKi reported for COC(=O)C1=C(C)NC(C)=C(C(=O)NCCCN2CCC(c3ccccc3)(c3ccccc3)CC2)C1c1ccc(C)cc1 (stereo not shown) = 5.13

Please fill in: pKi reported for COC(=O)C1=C(C)NC(C)=C(C(=O)NCCCN2CCC(c3ccccc3)(c3ccccc3)CC2)C1c1cc(OC)c(OC)c(OC)c1 (stereo not shown) = 6.23

Please fill in: pKi reported for COC(=O)C1=C(C)NC(C)=C(C(=O)N(C)CCCN2CCC(c3ccccc3)(c3ccccc3)CC2)C1c1ccc([N+](=O)[O-])cc1 (stereo not shown) [Example 46, hydrochloride hemihydrate] = 5.13

Please fill in: pKi reported for COC(=O)C1=C(C)NC(C)=C(C(=O)NCCCN2CCC(c3ccccc3)(c3ccccc3)CC2)C1C1CCCCC1 (stereo not shown) = 5.80

Please fill in: pKi reported for COC(=O)C1=C(C)NC(C)=C(C(=O)NCCCN2CCC(c3ccccc3)(c3ccccc3)CC2)C1c1ccc(-c2ccccc2)cc1 (stereo not shown) = 6.06

Please fill in: pKi reported for COC(=O)C1=C(C)NC(C)=C(C(=O)NCCCN2CCC(c3ccccc3)(c3ccccc3)CC2)C1c1ccc(F)cc1 (stereo not shown) = 5.94

Please fill in: pKi reported for COC(=O)C1=C(C)N(C)C(C)=C(C(=O)OCCCN2CCC(c3ccccc3)(c3ccccc3)CC2)C1c1ccc([N+](=O)[O-])cc1 (stereo not shown) [Example 92, hydrochloride hydrate] = 5.38
